# Method Summary: Oral bioavailability in Sprague-Dawley Crl:CD(SD) rat at 3 mg/kg measured upto 24 hrs by LC-MS/MS analysis
# Assay type: ADME, organism-based
# Stated Conditions: in vivo
Parameter: bioavailability (%)
Numbers only, in %.

# input Request the reported bioavailability associated with CS(=O)(=O)c1ccc(N[C@H](c2ccccn2)c2cccc(Cl)c2F)c(Nc2nccc(C(N)=O)n2)c1
# output 36
